- Tested on: SR leukemia
- protocol.notes: NCI-60 one-dose screen, 48 h (100 = growth as untreated, 0 = no growth, -100 = all killed)
- settings: 10 µM unless noted
This is part of a sample that, as a whole, favours compounds with a hit. Of some 83,000 tested, about 20% had one in any assay. Active and inactive are the calls of the source. How the source made its calls: active means growth percent below 10; inactive means the rest.
Catalogue of growth values

Example cases with answers are listed next.
- compound: "N/C(=N\\c1nc2ccccc2[nH]1)NC(=O)Cc1cccc2ccccc12"
  measurement.target: "SR leukemia"
  growth: "115% (inactive)"
- compound: "CCCn1ccnc1C(O)c1ccc(OCc2ccccc2)c(OC)c1 (stereo not drawn)"
  measurement.target: "SR leukemia"
  growth: "96.1% (inactive)"

Turning to the following compound.
Answer with the recorded growth of "CC(C)=CCC[C@](C)(O)[C@H]1CC[C@]2(C)[C@@H]1CC[C@@H]1[C@@]3(C)CC[C@H](OC(=O)CCC(=O)O)C(C)(C)[C@@H]3CC[C@]12C" only.
29% [100 µM] (inactive)
